target: T1, Nat1 (LTIITLE) (also: TFA salt); experiment: cell-based or functional assay
T1 peptide: LTIITLE
Non-standard residues stand in square brackets, D forms with d. No end group written: not given here.
MEASURED ENDPOINT: IC50, Thiofiavin T aggregation assay (nM)

1: [dY][dW][dQ][dW][dR][dQ][dS] [ywqwrqs]
2: IRIRRYA
3: [dR][dF][dE][dF][dR][dH][dR] [rfefrhr]
sort_by: IC50, Thiofiavin T aggregation assay; order: ascending; scope: items listed above // respond by listing labels in the order requested 2, 3, 1
